These data points were gathered from patent US10314841B2.

target-system: IRAK4 (His-TEV-IRAK4) (Homo sapiens, UniProt Q9NWZ3)
Construct: His (N); TEV cleavage site (N)
experimental-protocol: IRAK4 enzymatic assay
condition-summary: human recombinant His-TEV-IRAK4, ATP 2 μM, STK1-biotin peptide 300 nM, 3 hours at 30° C., FlashPlate
attribute-measured: IC50

molecule	result
C=CS(=O)(=O)NCCn1cc(-c2cnc(-c3cccc(-c4cnn(C)c4)c3)nc2)cn1	100 to 1000 nM
Cn1cc(-c2cccc(-c3ncc(-c4cnn([C@H]5CCC[C@H](S(C)(=N)=O)C5)c4)cn3)c2)cn1 (relative stereo)	< 100 nM
C=CC(=O)N1CCC(n2cc(-c3cnc(-c4cccc(-c5cnn(C)c5)c4)nc3)cn2)CC1	< 100 nM
Cn1cc(-c2cccc(-c3ncc(-c4cnn([C@H]5CC[C@]6(CCC(=O)N6CCO)CC5)c4)cn3)c2)cn1	< 100 nM

---

target-system: IRAK4 (His-TEV-IRAK4) (Homo sapiens, UniProt Q9NWZ3)
Construct: His (N); TEV cleavage site (N)
experimental-protocol: IRAK4 enzymatic assay
condition-summary: human recombinant His-TEV-IRAK4, ATP 2 μM, STK1-biotin peptide 300 nM, 3 hours at 30° C., FlashPlate
Text: […]
attribute-measured: IC50

compound	result
CC1COCCC1N1CCC[C@@H](n2cc(-c3cnc(-c4cccc(-c5cnn(C)c5)c4)nc3)cn2)C1 (some centres unmarked)	100 to 1000 nM
CN(C)C/C=C/C(=O)N1CCC(n2cc(-c3cnc(-c4cccc(-c5cnn(C)c5)c4)nc3)cn2)CC1	100 to 1000 nM
Cn1cc(-c2cccc(-c3ncc(-c4cnn(C5CCC[C@@H](NC6CCOC6)C5)c4)cn3)c2)cn1 (some centres unmarked)	< 100 nM
C=CS(=O)(=O)N[C@@H]1CCC[C@H](n2cc(-c3cnc(-c4cccc(-c5cnn(C)c5)c4)nc3)cn2)C1 (racemic)	< 100 nM
COCC1CNCCC1n1cc(-c2cnc(-c3cccc(-c4cnn(C)c4)c3)nc2)cn1 (centres unmarked)	100 to 1000 nM
Cn1cc(-c2cccc(-c3ncc(-c4cnn([C@H]5C[C@@H]6CC[C@@H](N6)C5F)c4)cn3)c2)cn1 (some centres unmarked)	< 100 nM
Cn1cc(-c2cccc(-c3ncc(-c4cnn(C5CCN(C#N)CC5)c4)cn3)c2)cn1	< 100 nM
Cn1cc(-c2cccc(-c3ncc(-c4cnn([C@H]5CCC[C@H](N6CCOCC6)C5)c4)cn3)c2)cn1 (relative stereo)	100 to 1000 nM

---

pIC50 overview
target-system: IRAK4 (His-TEV-IRAK4) (Homo sapiens)
Construct: His (N); TEV cleavage site (N)
Sequence (Q9NWZ3 1-460): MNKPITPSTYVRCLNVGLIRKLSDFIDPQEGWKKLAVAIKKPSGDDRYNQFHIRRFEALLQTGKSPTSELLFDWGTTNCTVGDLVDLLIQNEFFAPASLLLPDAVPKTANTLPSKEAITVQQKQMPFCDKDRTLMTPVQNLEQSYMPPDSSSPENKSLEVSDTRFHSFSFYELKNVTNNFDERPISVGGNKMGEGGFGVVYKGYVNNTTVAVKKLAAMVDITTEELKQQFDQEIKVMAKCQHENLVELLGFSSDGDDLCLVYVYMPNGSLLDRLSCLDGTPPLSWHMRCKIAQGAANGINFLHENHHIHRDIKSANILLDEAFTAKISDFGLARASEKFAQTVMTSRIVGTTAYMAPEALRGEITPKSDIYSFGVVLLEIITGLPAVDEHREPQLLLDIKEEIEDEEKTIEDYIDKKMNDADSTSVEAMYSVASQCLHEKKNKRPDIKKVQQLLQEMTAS
experimental-protocol: IRAK4 enzymatic assay
condition-summary: human recombinant His-TEV-IRAK4, ATP 2 μM, STK1-biotin peptide 300 nM, 3 hours at 30° C., FlashPlate
pIC50: −log10 of the molar value.

compound	pIC50
C=CS(=O)(=O)N1CCCC(n2cc(-c3cnc(-c4cccc(-c5cnn(C)c5)c4)nc3)cn2)C1 (stereo not shown)	> 7.00
Cn1cc(-c2cccc(-c3ncc(-c4cnn(C5CCCC(C(=O)O)C5)c4)cn3)c2)cn1 (mixture of isomers)	6.00 to 7.00
Cn1cc(-c2cccc(-c3ncc(-c4cnn([C@H]5CCC[C@@H](N6CCOCC6)C5)c4)cn3)c2)cn1 (relative stereo)	> 7.00
Cn1cc(-c2cccc(-c3ncc(-c4cnn(C5CCC(C(=O)O)C5)c4)cn3)c2)cn1 (stereo not shown)	6.00 to 7.00
C=CC(=O)N[C@H]1CCC[C@H](n2cc(-c3cnc(-c4cccc(-c5cnn(C)c5)c4)nc3)cn2)C1	> 7.00
Cn1cc(-c2cccc(-c3ncc(-c4cnn(C5CCCC(N6CCC(F)(F)CC6)C5)c4)cn3)c2)cn1 (stereo not shown)	> 7.00
CC#CC(=O)N1CCC(n2cc(-c3cnc(-c4cccc(-c5cnn(C)c5)c4)nc3)cn2)CC1	> 7.00

---

target-system: IRAK1 (His-TEV-IRAK1 (194-712)) (Homo sapiens, UniProt P51617)
Construct: His-TEV-IRAK1 (194-712); His (N); TEV cleavage site (N)
Sequence (P51617 194-712): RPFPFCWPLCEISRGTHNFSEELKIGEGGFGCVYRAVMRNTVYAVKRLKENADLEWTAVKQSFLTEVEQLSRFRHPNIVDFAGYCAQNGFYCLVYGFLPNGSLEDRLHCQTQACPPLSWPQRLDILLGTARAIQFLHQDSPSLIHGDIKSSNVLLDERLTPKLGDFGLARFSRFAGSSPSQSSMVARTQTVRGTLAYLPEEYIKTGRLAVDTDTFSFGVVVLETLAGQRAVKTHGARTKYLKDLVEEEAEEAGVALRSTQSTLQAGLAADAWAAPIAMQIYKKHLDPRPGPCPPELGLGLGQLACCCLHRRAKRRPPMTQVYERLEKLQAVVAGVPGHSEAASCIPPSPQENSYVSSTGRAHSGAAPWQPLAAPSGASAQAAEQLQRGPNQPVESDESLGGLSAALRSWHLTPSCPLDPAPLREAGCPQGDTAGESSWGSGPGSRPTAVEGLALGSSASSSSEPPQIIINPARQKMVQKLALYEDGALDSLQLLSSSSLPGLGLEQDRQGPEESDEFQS
experimental-protocol: IRAK1 enzymatic assay
condition-summary: human recombinant His-TEV-IRAK1, ATP 1 μM, 3 hours at 30° C., FlashPlate
attribute-measured: IC50

molecule	result
Cn1cc(-c2cccc(-c3ncc(-c4cnn(C5CCNCC5CO)c4)cn3)c2)cn1 (mixture of isomers)	100 to 1000 nM
Cn1cc(-c2cccc(-c3ncc(-c4cnn(C5CCC(C(=O)O)C5)c4)cn3)c2)cn1 (stereo not shown)	1000 to 20000 nM
Cn1cc(-c2cccc(-c3ncc(-c4cnn(C5CCCC(N6CCCC(F)(F)C6)C5)c4)cn3)c2)cn1 (stereo not shown)	100 to 1000 nM
C=CC(=O)N1CCCC(n2cc(-c3cnc(-c4cccc(-c5cnn(C)c5)c4)nc3)cn2)C1 (stereo not shown)	100 to 1000 nM

---

target-system: IRAK4 (His-TEV-IRAK4) (Homo sapiens)
Construct: His (N); TEV cleavage site (N)
Sequence (Q9NWZ3 1-460): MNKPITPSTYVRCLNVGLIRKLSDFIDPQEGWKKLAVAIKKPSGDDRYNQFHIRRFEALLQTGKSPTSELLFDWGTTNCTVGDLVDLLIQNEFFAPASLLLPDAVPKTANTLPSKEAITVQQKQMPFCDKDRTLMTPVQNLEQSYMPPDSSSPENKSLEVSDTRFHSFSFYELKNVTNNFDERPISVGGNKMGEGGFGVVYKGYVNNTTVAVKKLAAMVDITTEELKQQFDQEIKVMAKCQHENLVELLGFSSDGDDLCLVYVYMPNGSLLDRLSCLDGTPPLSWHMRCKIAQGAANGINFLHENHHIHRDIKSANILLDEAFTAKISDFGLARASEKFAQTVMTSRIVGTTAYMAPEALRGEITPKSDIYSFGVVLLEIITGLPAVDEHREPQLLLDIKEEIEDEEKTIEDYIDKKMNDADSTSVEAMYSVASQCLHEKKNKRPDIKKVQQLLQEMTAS
experimental-protocol: IRAK4 enzymatic assay
condition-summary: human recombinant His-TEV-IRAK4, ATP 2 μM, STK1-biotin peptide 300 nM, 3 hours at 30° C., FlashPlate
Text: […]

molecule	IC50
Cn1cc(-c2cccc(-c3ncc(-c4cnn(C5CCCN(C(=O)OC(C)(C)C)C5)c4)cn3)c2)cn1 (stereo not shown) [Compound 7]	0.1 to 1 µM
Cn1nccc1-c1cccc(-c2ncc(-c3cnn([C@H]4CC[C@]5(CCC(=O)N5C)CC4)c3)cn2)c1 [Compound 43]	< 0.1 µM
CC(=O)N1CCC(n2cc(-c3cnc(-c4cccc(-c5cnn(C)c5)c4)nc3)cn2)C(CO)C1 (mixture of isomers) [Compound 22]	< 0.1 µM
O[C@H]1CC[C@H](n2cc(-c3cnc(-c4cccc(-c5cnn(C6CCNCC6)c5)c4)nc3)cn2)CC1 [Compound 32]	0.1 to 1 µM
Cn1cc(-c2cccc(-c3ncc(-c4cnn([C@H]5CCC[C@@H](NS(C)(=O)=O)C5)c4)cn3)c2)cn1 (single isomer, unassigned) [Compound 28]	0.1 to 1 µM
Cn1cc(-c2cccc(-c3ncc(-c4cnn(C5CCC[C@@H](S(C)(=N)=O)C5)c4)cn3)c2)cn1 (stereo partly shown) [Compound 34]	< 0.1 µM
C=CC(=O)N1CCCC(n2cc(-c3cnc(-c4cccc(-c5cnn(C)c5)c4)nc3)cn2)C1 (stereo not shown) [Compound 14]	< 0.1 µM

---

Test system: TLR7 induced IL-6 secretion in human PBMC's
experimental-protocol: TLR7 induced IL-6 in human PBMC's
Assay type: cell-based
condition-summary: human PBMC, TLR7 specific ligand 2 uM overnight, IL-6 Alpha LISA; read-out: TLR7 induced IL-6 secretion in hPBMC's (IC50)
IC50 overview

molecule	target-system	IC50
Cn1cc(-c2cccc(-c3ncc(-c4cnn(C5CCN(C(=O)/C(C#N)=C\C6CC6)CC5)c4)cn3)c2)cn1 [Compound 46]	TLR7 induced IL-6 secretion in human PBMC's	0.1 to 1 µM
C=CC(=O)N1CCCC(n2cc(-c3cnc(-c4cccc(-c5cnn(C)c5)c4)nc3)cn2)C1 (stereo not drawn) [Compound 14]	TLR7 induced IL-6 secretion in human PBMC's	0.1 to 1 µM
C=CS(=O)(=O)N[C@H]1CCC[C@H](n2cc(-c3cnc(-c4cccc(-c5cnn(C)c5)c4)nc3)cn2)C1 (relative stereo) [Compound 37]	TLR7 induced IL-6 secretion in human PBMC's	0.1 to 1 µM
Cn1cc(-c2cccc(-c3ncc(-c4cnn(C5CCC[C@@H](S(C)(=N)=O)C5)c4)cn3)c2)cn1 (stereo partly drawn) [Compound 34]	TLR7 induced IL-6 secretion in human PBMC's	1 to 20 µM
C=CC(=O)N[C@H]1CCC[C@H](n2cc(-c3cnc(-c4cccc(-c5cnn(C)c5)c4)nc3)cn2)C1 [Compound 38]	TLR7 induced IL-6 secretion in human PBMC's	0.1 to 1 µM
Cn1cc(-c2cccc(-c3ncc(-c4cnn([C@H]5CCC[C@H](NCCO)C5)c4)cn3)c2)cn1 (relative stereo) [Compound 2]	TLR7 induced IL-6 secretion in human PBMC's	1 to 20 µM
C=CS(=O)(=O)N[C@@H]1CCC[C@H](n2cc(-c3cnc(-c4cccc(-c5cnn(C)c5)c4)nc3)cn2)C1 (racemic) [Compound 33]	TLR7 induced IL-6 secretion in human PBMC's	0.1 to 1 µM
Cn1nccc1-c1cccc(-c2ncc(-c3cnn([C@H]4CC[C@]5(CCC(=O)N5C)CC4)c3)cn2)c1 [Compound 43]	TLR7 induced IL-6 secretion in human PBMC's	1 to 20 µM
Cn1cc(-c2cccc(-c3ncc(-c4cnn(C5CCN(C#N)CC5)c4)cn3)c2)cn1 [Compound 45]	TLR7 induced IL-6 secretion in human PBMC's	0.1 to 1 µM
Cn1cc(-c2cccc(-c3ncc(-c4cnn([C@H]5CCC[C@@H](NS(C)(=O)=O)C5)c4)cn3)c2)cn1 (single isomer, unassigned) [Compound 28]	TLR7 induced IL-6 secretion in human PBMC's	1 to 20 µM
CC#CC(=O)N1CCC(n2cc(-c3cnc(-c4cccc(-c5cnn(C)c5)c4)nc3)cn2)CC1 [Compound 48]	TLR7 induced IL-6 secretion in human PBMC's	1 to 20 µM
C=CS(=O)(=O)N1CCC(n2cc(-c3cnc(-c4cccc(-c5cnn(C)c5)c4)nc3)cn2)CC1 [Compound 18]	TLR7 induced IL-6 secretion in human PBMC's	< 0.1 µM
C=CC(=O)NC1CCCC(n2cc(-c3cnc(-c4cccc(-c5cnn(C)c5)c4)nc3)cn2)C1 (stereo not drawn) [Compound 15]	TLR7 induced IL-6 secretion in human PBMC's	< 0.1 µM
C=CC(=O)N1CCC(n2cc(-c3cnc(-c4cccc(-c5cnn(C)c5)c4)nc3)cn2)CC1 [Compound 10]	TLR7 induced IL-6 secretion in human PBMC's	0.1 to 1 µM
Cn1cc(-c2cccc(-c3ncc(-c4cnn(C5CCNCC5CO)c4)cn3)c2)cn1 (mixture of isomers) [Compound 26]	TLR7 induced IL-6 secretion in human PBMC's	1 to 20 µM
C=CC(=O)N[C@@H]1CCC[C@H](n2cc(-c3cnc(-c4cccc(-c5cnn(C)c5)c4)nc3)cn2)C1 (relative stereo) [Compound 36]	TLR7 induced IL-6 secretion in human PBMC's	0.1 to 1 µM
Cn1cc(-c2cccc(-c3ncc(-c4cnn(C5CCC[C@@H](NC6CCOC6)C5)c4)cn3)c2)cn1 (stereo partly drawn) [Compound 12]	TLR7 induced IL-6 secretion in human PBMC's	0.1 to 1 µM
Cn1cc(-c2cccc(-c3ncc(-c4cnn([C@H]5CCC[C@H](N6CCOCC6=O)C5)c4)cn3)c2)cn1 (relative stereo) [Compound 3]	TLR7 induced IL-6 secretion in human PBMC's	0.1 to 1 µM
Cn1cc(-c2cccc(-c3ncc(-c4cnn(C5CCCC(NC(=O)OC(C)(C)C)C5)c4)cn3)c2)cn1 (stereo not drawn) [Compound 9]	TLR7 induced IL-6 secretion in human PBMC's	1 to 20 µM
Cn1cc(-c2cccc(-c3ncc(-c4cnn([C@H]5CCC[C@H](S(C)(=N)=O)C5)c4)cn3)c2)cn1 (relative stereo) [Compound 35]	TLR7 induced IL-6 secretion in human PBMC's	1 to 20 µM
Cn1cc(-c2cccc(-c3ncc(-c4cnn([C@H]5CCC[C@@H](N6CCOCC6)C5)c4)cn3)c2)cn1 (relative stereo) [Compound 4]	TLR7 induced IL-6 secretion in human PBMC's	0.1 to 1 µM
C=CS(=O)(=O)N1CCCC(n2cc(-c3cnc(-c4cccc(-c5cnn(C)c5)c4)nc3)cn2)C1 (stereo not drawn) [Compound 17]	TLR7 induced IL-6 secretion in human PBMC's	< 0.1 µM
Cn1cc(-c2cccc(-c3ncc(-c4cnn(C5CCCC(N6CCC(F)(F)CC6)C5)c4)cn3)c2)cn1 (stereo not drawn) [Compound 11]	TLR7 induced IL-6 secretion in human PBMC's	0.1 to 1 µM
Cn1cc(-c2cccc(-c3ncc(-c4cnn([C@@H]5CCC[C@@H](NS(C)(=O)=O)C5)c4)cn3)c2)cn1 (single isomer, unassigned) [Compound 27]	TLR7 induced IL-6 secretion in human PBMC's	0.1 to 1 µM
